meta.source: patent US20170355757A1

- experimental_target: Cynomolgus monkey C5 (cynomolgus monkey, UniProt A0A2K5U1T1 19-1676)
- assay_text: cell-based or functional assay
Class membership depends on Cyno Serum AP IC50, hemolysis assay, 5% serum alone; the intervals are group 1: < 7 nM; group 2: ≥ 7 nM and < 8 nM; group 3: ≥ 8 nM

INSERT INTO assay_data (binder, cat) VALUES
  ('H4H12168P (antibody, human IgG4, V domains shown, H4H: human IgG4 Fc with S108P hinge mutation) VH: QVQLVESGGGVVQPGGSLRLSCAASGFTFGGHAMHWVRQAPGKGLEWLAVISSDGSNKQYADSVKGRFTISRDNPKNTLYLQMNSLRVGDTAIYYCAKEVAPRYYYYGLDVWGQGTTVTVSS VL: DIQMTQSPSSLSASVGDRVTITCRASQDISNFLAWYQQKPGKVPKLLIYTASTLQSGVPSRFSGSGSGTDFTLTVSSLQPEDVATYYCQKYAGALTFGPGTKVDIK', 'group 1'),
  ('H4H11686N (antibody, human IgG4, V domains shown, tested with H4H prefix (human IgG4 Fc with S108P hinge mutation); also called H2M11686N) VH: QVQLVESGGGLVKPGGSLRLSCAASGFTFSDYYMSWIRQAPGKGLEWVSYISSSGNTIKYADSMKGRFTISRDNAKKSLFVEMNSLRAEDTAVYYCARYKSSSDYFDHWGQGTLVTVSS VL: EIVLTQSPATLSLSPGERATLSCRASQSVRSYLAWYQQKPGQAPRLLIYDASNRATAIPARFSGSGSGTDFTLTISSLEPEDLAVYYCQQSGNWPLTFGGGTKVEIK', 'group 3'),
  ('H4H12163P (antibody, human IgG4, V domains shown, H4H: human IgG4 Fc with S108P hinge mutation) VH: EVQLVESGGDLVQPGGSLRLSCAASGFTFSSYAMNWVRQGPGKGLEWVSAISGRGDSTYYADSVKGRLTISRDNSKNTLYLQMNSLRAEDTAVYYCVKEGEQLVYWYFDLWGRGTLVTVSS VL: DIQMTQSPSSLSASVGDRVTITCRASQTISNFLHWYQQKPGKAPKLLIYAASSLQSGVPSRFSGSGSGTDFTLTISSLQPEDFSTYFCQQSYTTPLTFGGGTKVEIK', 'group 3'),
  ('H4H12164P (antibody, human IgG4, V domains shown, H4H: human IgG4 Fc with S108P hinge mutation) VH: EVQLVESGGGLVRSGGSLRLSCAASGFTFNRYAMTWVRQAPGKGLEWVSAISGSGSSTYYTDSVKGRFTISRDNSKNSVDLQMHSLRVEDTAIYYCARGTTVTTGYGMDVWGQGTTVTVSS VL: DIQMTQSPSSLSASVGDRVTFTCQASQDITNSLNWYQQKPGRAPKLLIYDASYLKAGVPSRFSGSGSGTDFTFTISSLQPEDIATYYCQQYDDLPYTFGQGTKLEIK', 'group 3'),
  ('H4H12167P (antibody, human IgG4, V domains shown, H4H: human IgG4 Fc with S108P hinge mutation) VH: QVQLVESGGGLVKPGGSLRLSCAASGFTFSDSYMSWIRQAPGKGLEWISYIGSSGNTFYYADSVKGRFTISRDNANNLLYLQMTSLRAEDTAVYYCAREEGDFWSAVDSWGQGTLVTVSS VL: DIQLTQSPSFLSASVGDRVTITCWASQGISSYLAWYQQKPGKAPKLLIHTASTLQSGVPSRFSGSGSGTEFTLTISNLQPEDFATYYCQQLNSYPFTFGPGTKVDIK', 'group 2');
